Listing: Sensory Performance (%) of selected molecules
tested on: butyric acid malodor perception; assay: Human sensory panel, perceived intensity of butyric acid; assay type: in vivo; settings: Table 20

molecule	systemTested	endpointUnit	Sensory Performance (%)
CC1=C(C)CC2(CCCC(C)(C)C2O)C1 (stereo not drawn)	butyric acid malodor perception	%	60
C=C(C)CC1(CC(=C)C)CCCC(C)(C)C1=O	butyric acid malodor perception	%	50
CC(=O)OC1C(C)(C)CCCC12CC(C)C(C)C2 (stereo not drawn)	butyric acid malodor perception	%	50
CC1=C(C)CC2(CCCC(C)(C)C2=O)C1	butyric acid malodor perception	%	56
CC(=O)OC1C(C)(C)CCCC12C(C)C=CCC2C (stereo not drawn)	butyric acid malodor perception	%	43
CC(=O)OC1C(C)(C)CCCC12CC(C)=C(C)C2 (stereo not drawn)	butyric acid malodor perception	%	40

Reference for the values: patent US20230233425A1
